assay_overview: qHTS of pediatric cancer cell lines to identify multiple opportunities for drug repurposing: Primary screen for BT-37 cells (AID 1347094);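 note: plate controls were DMSO for no effect and bortezomib for full effect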
condition_label: BT-37 viability, CellTiter-Glo luminescence, 48 h; series mostly up to 57.3 µM
Procedure: Drug repurposing or repositioning has been offered as a strategy for drug development in oncology programs. This approach has special potential for childhood cancers and other rare or orphan diseases, where the expected return on new drug development has been a disincentive to pharmaceuticals. […] We employed a titration-based paradigm (quantitative high-throughput screening or qHTS), where all compounds were tested at multiple concentrations for their effect on cell viability. […]
Results filed as inconclusive are left out. Calls of active or inactive are those of the source. Calls come from the whole dose curve; as a rule, active = well fitted cell-killing curve with a large enough effect; inconclusive = small, poorly fitted or top-dose-only effect; inactive = flat fitted curve, though single readings scatter.
endpoint_name: outcome

As a guide, the following entries are already answered.
| smiles_structure | outcome |
| --- | --- |
| CCN(CC)CCNC(=O)c1cc(Cl)c(N)cc1OC | inactive |
| CC(=O)Oc1ccc(C2(c3ccc(OC(C)=O)cc3)C(=O)Nc3ccccc32)cc1 | inactive |
| COc1ccc2c(c1)C(=O)N(CCc1ccc(S(=O)(=O)NC(=O)NC3CCCCC3)cc1)C(=O)C2(C)C | inactive |
| CN(C)CCN(Cc1ccccc1)c1ccccn1 | inactive |

// outcome value for CC(C)(O)c1ccccc1CC[C@@H](SCC1(CC(=O)O)CC1)c1cccc(/C=C/c2ccc3ccc(Cl)cc3n2)c1 : inactive

---

assay_overview: qHTS of pediatric cancer cell lines to identify multiple opportunities for drug repurposing: Confirmatory screen for Rh18 cells (AID 1347125);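 note: cells exposed to compound for 48 h; % is set by controls: 0 for no effect and ±100 for the full control effect; nearly all actives have a fitted effect of over 55% in size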
condition_label: Rh18 rhabdomyosarcoma cells, viability; series mostly up to 45.9 µM
Records with an inconclusive call do not appear. Active and inactive are the calls of the source. Calls follow the shape of the dose curve; as a rule, active = well fitted cell-killing curve with a large enough effect; inconclusive = small, poorly fitted or top-dose-only effect, or effect the other way; inactive = flat fitted curve, though single readings scatter.
endpoint_name: activity change, negative = cytotoxic

As a guide, the following entries are already answered.
| smiles_structure | endpoint_name | result |
| --- | --- | --- |
| CCN(CC)CCNC(=O)c1cc(Cl)c(N)cc1OC | activity change, negative = cytotoxic | inactive |
| C[C@](N)(Cc1ccc(O)cc1)C(=O)O | activity change, negative = cytotoxic | 0.623% [at 5.01 µM] (inactive) |
| Cc1ccc2nc(N)[nH]c(=O)c2c1Sc1ccncc1 | activity change, negative = cytotoxic | inactive |
| C[C@@H]1C[C@H]2[C@@H]3C[C@H](F)C4=CC(=O)C=C[C@]4(C)[C@@]3(F)[C@@H](O)C[C@]2(C)[C@@]1(O)C(=O)CO | activity change, negative = cytotoxic | inactive |

Okay, now this compound:
// activity change, negative = cytotoxic value for O=C1N=C(O)CN1/N=C/c1ccc(-c2ccc([N+](=O)[O-])cc2)o1 : inactive

---

System: SC27B
assay_overview: qHTS profiling for inhibitors of Plasmodium falciparum proliferation (AID 504749); note: nearly all actives have a fitted effect of over 60% in size
condition_label: P. falciparum in erythrocytes, SYBR Green DNA, 72 h; series mostly up to 28.7 µM
Inconclusive results are not listed. The source made the active and inactive calls. The call rests on the fitted dose curve; in most records, active means well fitted inhibition curve with a large enough effect; inconclusive means small, poorly fitted or top-dose-only effect; inactive means flat fitted curve, though single readings scatter.
// allowed return values: true (1) (active), false (0) (inactive)

| smiles_structure | category_label |
| --- | --- |
| CCN(CC)CCNC(=O)c1c(C)[nH]c(/C=C2\C(=O)Nc3ccc(F)cc32)c1C | true (1) |
| O=C1NC(=O)[C@@]2(CCOc3ccc(F)cc32)N1 | false (0) |
| NS(=O)(=O)c1cc2c(cc1Cl)NC(CSCc1ccccc1)=NS2(=O)=O | false (0) |
| Cc1ncc(COP(=O)(O)O)c(C=O)c1O | false (0) |
| O=C(O)COc1nn(Cc2ccccc2)c2ccccc12 | false (0) |

Q. Could you check what this test reported for CCn1cc(C(=O)O)c(=O)c2cnc(N3CCNCC3)nc21 ?
A. false (0)

Q. Could you check what this test reported for O=C(O)CN1C(=O)c2cccc3cccc(c23)C1=O ?
A. false (0)

---

System: CRL-7250
assay_overview: Cytotoxic Profiling of Annotated Libraries Using Quantitative High-Throughput Screening (AID 1296008); note: nearly all actives have a fitted effect of over 60% in size
condition_label: Five cell lines viability, CellTiter-Glo ATP luminescence, 48-72 h
Results filed as inconclusive are left out. The source made the active and inactive calls. Calls follow the shape of the dose curve; as a rule, active = well fitted inhibition curve with a large enough effect; inconclusive = small, poorly fitted or top-dose-only effect; inactive = flat fitted curve, though single readings scatter.
// allowed return values: active, inactive

Field: example entries. Status: answers known.
| compound | category_label |
| --- | --- |
| NC(CSCC(=O)O)C(=O)O (stereo not given) | inactive |
| CC(C(O)c1ccc(O)cc1)N1CCC(Cc2ccccc2)CC1 (stereo not given) | inactive |
| CC1(C)CO[C@@H](CC(=O)O)CN1 | inactive |

Could you now consider this next compound?
Q. Could you check what this test reported for CCOC(=O)[C@H](CCc1ccccc1)N[C@@H](C)C(=O)N1C(=O)N(C)C[C@H]1C(=O)O ?
A. inactive

---

Test system: C2A
assay_overview: qHTS profiling for inhibitors of Plasmodium falciparum proliferation (AID 504749); note: nearly all actives have a fitted effect of over 60% in size
condition_label: P. falciparum in erythrocytes, SYBR Green DNA, 72 h; series mostly up to 28.7 µM
Results filed as inconclusive are left out. Activity calls are given as the source filed them. Calls come from the whole dose curve; as a rule, active = well fitted inhibition curve with a large enough effect; inconclusive = small, poorly fitted or top-dose-only effect; inactive = flat fitted curve, though single readings scatter.

| molecule | outcome |
| --- | --- |
| CC(=O)NC(Cc1ccccc1)C(=O)O (stereo not drawn) | inactive |
| CCOC(=O)c1ccc(O)cc1 | inactive |
| CCN(CC)CCSC(=O)C(c1ccccc1)c1ccccc1 | inactive |

---

target_or_test_system: Ubiquitin carboxyl-terminal hydrolase 1 (Homo sapiens) (UniProt O94782)
Sequence (O94782 whole entry, looked up): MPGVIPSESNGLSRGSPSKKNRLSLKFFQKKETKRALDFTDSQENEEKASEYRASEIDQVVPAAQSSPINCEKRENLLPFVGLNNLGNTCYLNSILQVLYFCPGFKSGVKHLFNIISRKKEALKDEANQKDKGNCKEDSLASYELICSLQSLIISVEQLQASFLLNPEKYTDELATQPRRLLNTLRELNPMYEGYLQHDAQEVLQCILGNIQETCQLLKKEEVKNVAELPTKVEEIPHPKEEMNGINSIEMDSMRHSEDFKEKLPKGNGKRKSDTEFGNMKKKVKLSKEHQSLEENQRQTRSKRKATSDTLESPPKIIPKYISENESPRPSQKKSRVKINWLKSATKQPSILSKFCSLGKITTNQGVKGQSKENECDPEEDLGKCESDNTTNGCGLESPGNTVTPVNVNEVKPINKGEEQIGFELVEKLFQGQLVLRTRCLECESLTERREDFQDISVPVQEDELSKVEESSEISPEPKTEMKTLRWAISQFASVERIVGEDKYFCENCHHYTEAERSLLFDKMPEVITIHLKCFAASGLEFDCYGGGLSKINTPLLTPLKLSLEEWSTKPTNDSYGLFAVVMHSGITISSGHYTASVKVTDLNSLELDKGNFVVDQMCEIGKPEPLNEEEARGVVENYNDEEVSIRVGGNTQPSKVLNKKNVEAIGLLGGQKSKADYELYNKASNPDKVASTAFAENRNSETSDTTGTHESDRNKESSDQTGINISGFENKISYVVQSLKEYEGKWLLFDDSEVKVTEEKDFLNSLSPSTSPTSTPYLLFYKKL
assay_overview: Inhibitors of USP1/UAF1: Pilot qHTS (AID 504865);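 note: rhodamine fluorescence freed from ubiquitin-rhodamine substrate followed over time; top concentration of the series differs between compounds; % is set by controls: 0 for no effect and ±100 for the full control effect; nearly all actives have a fitted effect of over 35% in size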
condition_label: purified USP1/UAF1, Ub-rhodamine cleavage fluorescence; series mostly up to 114 µM
Source text: Deubiquitinating enzymes (DUBs) are a class of enzymes that can cleave isopeptide bond formed between the C-terminal carboxylate of ubiquitin and a lysine side-chain amino group on the target protein. Among them, ubiquitin specific proteases (USPs) constitute the largest DUB family. […]
Results filed as inconclusive are left out. Calls of active or inactive are those of the source. Calls come from the whole dose curve; as a rule, active = well fitted inhibition curve with a large enough effect; inconclusive = small, poorly fitted or top-dose-only effect; inactive = flat fitted curve, though single readings scatter.
// allowed return values: 1 = active, -1 = inactive

Q. Could you check what this test reported for CNCCC(Oc1ccc(C(F)(F)F)cc1)c1ccccc1 (stereo not given) ?
A. -1

---

assay_overview: qHTS of pediatric cancer cell lines to identify multiple opportunities for drug repurposing: Primary screen for RD cells (AID 1347104); note: nearly all actives have a fitted effect of over 55% in size
condition_label: RD rhabdomyosarcoma viability, CellTiter-Glo luminescence, 48 h; series mostly up to 46 µM
Results filed as inconclusive are left out. Calls of active or inactive are those of the source. The call rests on the fitted dose curve; in most records, active means well fitted cell-killing curve with a large enough effect; inconclusive means small, poorly fitted or top-dose-only effect; inactive means flat fitted curve, though single readings scatter.
// allowed return values: active, inactive

Field: example entries. Status: answers known.
| compound | category_label |
| --- | --- |
| COc1cc(C)c(Cc2cnc(N)nc2N)cc1OC | inactive |
| Cc1ncc(COP(=O)(O)O)c(C=O)c1O | inactive |
| CCCCOC(=O)c1ccc(O)cc1 | inactive |

Q. Could you check what this test reported for O=S(=O)(O)NC1CCCCC1 ?
A. inactive

Q. Could you check what this test reported for O=C(Oc1ccccc1C(=O)O)c1ccccc1O ?
A. inactive

Q. Could you check what this test reported for CO/N=C(\C(=O)N[C@@H]1C(=O)N2C(C(=O)O)=C(CSc3nc(=O)c(O)nn3C)CS[C@H]12)c1csc(N)n1 ?
A. inactive

Q. Could you check what this test reported for CCN(CC)CCOC(=O)C1(C2CCCCC2)CCCCC1 ?
A. inactive

Q. Could you check what this test reported for N[C@H](C(=O)O)c1ccc(O)cc1 ?
A. inactive

Q. Could you check what this test reported for [O-][n+]1cccc(CO)c1 ?
A. inactive

Q. Could you check what this test reported for CC1=C(CC(=O)O)c2cc(F)ccc2/C1=C\c1ccc(S(C)(=O)=O)cc1 ?
A. inactive

Q. Could you check what this test reported for CC[N+](CC)(CC)CCOc1ccc(/C=C/c2ccccc2)cc1 ?
A. active

Q. Could you check what this test reported for NC(=O)NC(=O)Cc1ccccc1 ?
A. inactive

Q. Could you check what this test reported for Cc1cc2nc3c(=O)[nH]c(=O)nc-3n(C[C@H](O)[C@H](O)[C@H](O)CO)c2cc1C ?
A. inactive

Q. Could you check what this test reported for Nc1nc2c(ncn2CCC(CO)CO)c(=O)[nH]1 ?
A. inactive

---

Test system: CP325
assay_overview: qHTS profiling for inhibitors of Plasmodium falciparum proliferation (AID 504749); note: nearly all actives have a fitted effect of over 60% in size
condition_label: P. falciparum in erythrocytes, SYBR Green DNA, 72 h; series mostly up to 28.7 µM
Records with an inconclusive call do not appear. Calls of active or inactive are those of the source. Calls come from the whole dose curve; as a rule, active = well fitted inhibition curve with a large enough effect; inconclusive = small, poorly fitted or top-dose-only effect; inactive = flat fitted curve, though single readings scatter.
// allowed return values: true (active), false (inactive)

Field: example entries. Status: answers known.
| compound | target_or_test_system | category_label |
| --- | --- | --- |
| NS(=O)(=O)c1cc2c(cc1Cl)NC(CSCc1ccccc1)=NS2(=O)=O | CP325 | false |
| Cc1ccc(C(C)C)cc2c(C)ccc1-2 | CP325 | false |
| O=C(O)CN1C(=O)c2cccc3cccc(c23)C1=O | CP325 | false |
| CC[C@@]1(c2ccccc2)NC(=O)N(C)C1=O | CP325 | false |
| COC(=O)C1=C(C)NC(C)=C(C(=O)OC)C1c1ccccc1[N+](=O)[O-] | CP325 | false |

Q. Could you check what this test reported for O=C(O)[C@@H]1CSCN1 ?
A. false

Q. Could you check what this test reported for CN1CCN(C2Cc3ccccc3Sc3ccc(Cl)cc32)CC1 (stereo unspecified) ?
A. false

Q. Could you check what this test reported for CCOC(=O)c1ccc(O)cc1 ?
A. false

Q. Could you check what this test reported for CCCOC(=O)c1ccccc1 ?
A. false

Q. Could you check what this test reported for COc1cc2[nH]c(=O)[nH]c(=O)c2cc1OC ?
A. false

Q. Could you check what this test reported for COc1ccc(S(=O)(=O)Nc2nnc(CC(C)C)s2)cc1 ?
A. false

Q. Could you check what this test reported for NC(=O)NC(=O)Cc1ccccc1 ?
A. false

Q. Could you check what this test reported for NCCNCCNCCN ?
A. false

Q. Could you check what this test reported for CCOc1nc2cccc(C(=O)O)c2n1Cc1ccc(-c2ccccc2-c2nn[nH]n2)cc1 ?
A. false

Q. Could you check what this test reported for O=C1NC(=O)[C@@]2(CCOc3ccc(F)cc32)N1 ?
A. false

Q. Could you check what this test reported for O=Cc1ccccc1C=O ?
A. false

Q. Could you check what this test reported for CC12CCC(CC1)C(C)(C)O2 ?
A. false

Q. Could you check what this test reported for CC(=O)NC(Cc1ccccc1)C(=O)O (stereo unspecified) ?
A. false

Q. Could you check what this test reported for CC(=O)CCC(=O)O ?
A. false

Q. Could you check what this test reported for NC1CCN(c2cccc(Cl)n2)CC1 ?
A. false

Q. Could you check what this test reported for O=C(O)c1ccccc1-c1ccc(C(F)(F)F)cc1 ?
A. false

Q. Could you check what this test reported for CCOc1ccc2ccccc2c1C(=O)N[C@@H]1C(=O)N2[C@@H]1SC(C)(C)[C@@H]2C(=O)O ?
A. false

Q. Could you check what this test reported for [O-][n+]1cccc(CO)c1 ?
A. false

Q. Could you check what this test reported for COc1ccc(Cl)cc1C(=O)NCCc1ccc(S(=O)(=O)NC(=O)NC2CCCCC2)cc1 ?
A. false
